Property: absorbance at 490 nm; scope: individual binders
biological target: M1; assay: ELISA on coated antigen, column M1

Binder | absorbance at 490 nm
PDL1-27F8 (antibody, V domains shown, Only FR/CDR pieces are tied to the clone) VH: QVQLVQSGAEVKKPGSSVKVSCKASGGTFSSSAFSWVRQAPGHGLEWMGRIIPMFDMTDYAQRFQGRLTIIADESSSTAYMELSSLRSEDTAVYYCARSNPHYMDVWGQGTTVTVSS VL: QLVLTQPPSVSGAPGQRVTISCTGSNSDIGAGHDVHWYQQIPGTAPKVLIYGNTDRPSGVPDRFSGSKSGTSASLAITGLQAEDEADYYCQSYDSSLSGYVFGTGTKVTVL | 2.6
PDL1-31B7 (antibody, V domains shown, Only FR/CDR pieces are tied to the clone) VH: QVQLVESGAEVKKPGSSVKVSCKASGGTFSSYAISWVRQAPGQGLEWMGRIIPILGIANYAQKFQGRVTITADKSTSTAYMELSSLRSEDTAVYYCARASSGYSVGAFDIWGQGTMVTVSS VL: QLVLTQPPSVSAPPGQKVTISCSGSSSNIGNNYVSWYQQLPGTAPKLLIYDNNERPSGIPDRFSASKSGTSATLGISGLQTGDEADYYCGTWDSSLSAGVFGGGTKLTVL | 2.8
PDL1-16E12 (antibody, V domains shown, Only FR/CDR pieces are tied to the clone; also called parent antibody) VH: QMQLVQSGAEVKKPGSSVKVSCKASGGTFSSYAISWVRQAPGQGLEWMGRIIPILGIANYAQKFQGRVTITADKSTSTAYMELSSLRSEDTAVYYCAKPRDGYNLVAFDIWGQGTMVTVSS VL: QLVLTQPPSVSGAPGQTVTISCTGSSSNIGAGYDVHWYQQLPGTAPKLLIYGNNNRPSGVPDRFSGSKSGALASLAITGLQAEDGADYHCQSYDNSLSAHAVFGTGTKVTVL | 2.4
